assay: dog PK experiment; details: in vivo; dog, dosed at 3 mg/kg
MEASUREMENT TYPE: AUC (ng·h/mL)
Quick reminder: number only, in ng·h/mL, skip the unit.

Worked examples follow.
INSERT INTO assay_data (molecule, measurement_type, result) VALUES
  ('Cc1cc(C(=O)N[C@H]2CCCCC/C=C\[C@@H]3C[C@@]3(C(=O)NS(=O)(=O)C3CC3)NC(=O)[C@@H]3C[C@@H](Oc4nc5c(F)cccc5nc4C)CN3C2=O)no1 [Example 56]', 'AUC', 10800),
  ('Cc1cc(C(=O)N[C@H]2CCCCC/C=C\[C@@H]3C[C@@]3(C(=O)NS(=O)(=O)C3CC3)NC(=O)[C@@H]3C[C@@H](Oc4nc5cc(F)ccc5nc4C)CN3C2=O)no1 [Example 22]', 'AUC', 54000);

// below: AUC requested for another molecule
Quick one: AUC of Cc1cc(C(=O)N[C@H]2CCCCC/C=C\[C@@H]3C[C@@]3(C(=O)NS(=O)(=O)C3(C)CC3)NC(=O)[C@@H]3C[C@@H](Oc4nc5cc(F)ccc5nc4C(C)(F)F)CN3C2=O)no1 [Example 119] ?
30000
